- Target System: CDK7 (Homo sapiens (Human), UniProt P50613)
- Sequence (P50613 whole entry, looked up, species assumed): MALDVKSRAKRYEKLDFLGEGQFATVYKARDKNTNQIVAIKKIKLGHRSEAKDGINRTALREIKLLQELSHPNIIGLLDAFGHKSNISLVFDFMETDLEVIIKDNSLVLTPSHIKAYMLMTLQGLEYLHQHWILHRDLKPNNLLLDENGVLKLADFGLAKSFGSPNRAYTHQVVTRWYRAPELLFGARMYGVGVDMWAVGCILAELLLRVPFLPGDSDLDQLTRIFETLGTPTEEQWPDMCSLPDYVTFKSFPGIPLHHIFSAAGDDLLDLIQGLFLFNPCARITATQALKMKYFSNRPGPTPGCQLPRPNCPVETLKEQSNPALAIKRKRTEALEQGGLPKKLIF
- Sequence (P51946 whole entry partner, looked up, species assumed): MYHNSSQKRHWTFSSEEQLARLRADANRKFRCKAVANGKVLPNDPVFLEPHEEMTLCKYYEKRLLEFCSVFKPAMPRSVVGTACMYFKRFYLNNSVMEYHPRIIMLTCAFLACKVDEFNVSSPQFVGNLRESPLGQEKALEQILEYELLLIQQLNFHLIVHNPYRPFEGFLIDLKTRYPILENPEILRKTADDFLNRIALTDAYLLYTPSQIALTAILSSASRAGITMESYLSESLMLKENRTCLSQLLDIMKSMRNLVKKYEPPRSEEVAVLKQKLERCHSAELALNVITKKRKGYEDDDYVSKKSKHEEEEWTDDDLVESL
- Sequence (P51948 whole entry partner, looked up, species assumed): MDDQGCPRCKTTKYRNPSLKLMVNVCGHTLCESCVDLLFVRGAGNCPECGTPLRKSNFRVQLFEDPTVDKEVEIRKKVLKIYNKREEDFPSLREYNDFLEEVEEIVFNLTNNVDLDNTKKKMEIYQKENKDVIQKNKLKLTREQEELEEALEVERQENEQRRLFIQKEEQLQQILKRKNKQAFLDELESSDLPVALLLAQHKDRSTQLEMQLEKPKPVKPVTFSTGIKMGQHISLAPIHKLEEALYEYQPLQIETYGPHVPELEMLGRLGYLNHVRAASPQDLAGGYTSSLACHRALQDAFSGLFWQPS
- Test Method Notes: Biochemical assay for CDK7, LANCE TR-FRET
- Setup Conditions: ATP 1 mM/100 μM, 60 min pre-incubation; read-out: CDK 7 IC50
Reported log10 of IC50 values for the following compounds.
Each number you see is log10 of IC50, and the unit inside the log is µM.

compound=C=CC(=O)N1CC=C(c2ccc(CC(=O)Nc3cc(C4CC4)[nH]n3)cn2)C1 obs_value=0.89
compound="C=CC(=O)NC1CCC(c2ccc(C(C)C(=O)Nc3cc(C4CC4)n[nH]3)cc2)CC1 (single isomer, unassigned) [Compound 10]" obs_value=0.74
compound="C=CC(=O)N1CCCC(c2ccc(C(C)C(=O)Nc3cc(C4CC4)[nH]n3)cn2)C1 (centres unmarked)" obs_value=0.55

Q: Please report the recorded log10 of IC50 for C=CC(=O)N1CC=C(c2ccc(C(C)C(=O)Nc3cc(C4CC4)[nH]n3)cc2F)CC1 (centres unmarked) [Compound 44] .
Ans: -0.06

Q: Please report the recorded log10 of IC50 for C=CC(=O)N1CC=C(c2ccc(C(C(=O)Nc3cc(C4CC4)[nH]n3)C(C)C)cc2)CC1 (centres unmarked) .
Ans: -0.30

Q: Please report the recorded log10 of IC50 for C=CC(=O)N1CCC=C(c2ccc(C(C)C(=O)Nc3cc(C4CC4)[nH]n3)cn2)C1 (centres unmarked) .
Ans: -0.82

Q: Please report the recorded log10 of IC50 for C=CC(=O)N1CC=C(c2ccc(C(C)C(=O)Nc3cc(C4CC4)[nH]n3)cc2F)CC1 (centres unmarked) [Compound 45] .
Ans: 0.76

====

// values below are Kd; system is CDK12 (Homo sapiens (Human), UniProt Q9NYV4)

Some molecules with known Kd results, for comparison:
molecule="C=CC(=O)N1CCN(c2ccc(C(C)C(=O)Nc3cc(C4CC4)[nH]n3)cc2)CC1 (single isomer, unassigned) [Compound 19]" measured_quantity=Kd obs_value="> 100 nM"
molecule="C=CC(=O)N1CC=C(c2ccc(C(C(=O)Nc3cc(C4CC4)[nH]n3)C(C)C)cn2)CC1 (stereo not shown)" measured_quantity=Kd obs_value="> 100 nM"
molecule="C=CC(=O)NC1CCN(c2ccc(C(C)C(=O)Nc3cc(C4CC4)[nH]n3)cc2)CC1 (stereo not shown)" measured_quantity=Kd obs_value="< 25 nM"

Next:
Q: Please report the recorded Kd for C=CC(=O)N1CCN(c2ccc(C(C)C(=O)Nc3cc(C4CC4)[nH]n3)cn2)CC1 (stereo not shown) .
Ans: < 25 nM

====

Reported Ratio CDK7/CDK12 values for the following compounds.
- Target System: CDK12 (Homo sapiens (Human), UniProt Q9NYV4)
- Test Method Notes: Biochemical assay for CDK12 (IC50 determination), LANCE TR-FRET
- Experimental: The inhibitory activity of the test compounds was assessed by the LANCE TR-FRET assay, which detects the ATP-dependent phosphorylation of an ULight-4E-BP1 (Thr37/Thr46) substrate peptide (100 nM) by CDK12 (30 nM). […] The readout was calculated as (acceptor counts/donor counts)×1000. The IC50 values were derived by fitting a sigmoidal dose-response curve to a plot of assay readout over inhibitor concentration.
- Sequence (Q9NYV4 whole entry, looked up, species assumed): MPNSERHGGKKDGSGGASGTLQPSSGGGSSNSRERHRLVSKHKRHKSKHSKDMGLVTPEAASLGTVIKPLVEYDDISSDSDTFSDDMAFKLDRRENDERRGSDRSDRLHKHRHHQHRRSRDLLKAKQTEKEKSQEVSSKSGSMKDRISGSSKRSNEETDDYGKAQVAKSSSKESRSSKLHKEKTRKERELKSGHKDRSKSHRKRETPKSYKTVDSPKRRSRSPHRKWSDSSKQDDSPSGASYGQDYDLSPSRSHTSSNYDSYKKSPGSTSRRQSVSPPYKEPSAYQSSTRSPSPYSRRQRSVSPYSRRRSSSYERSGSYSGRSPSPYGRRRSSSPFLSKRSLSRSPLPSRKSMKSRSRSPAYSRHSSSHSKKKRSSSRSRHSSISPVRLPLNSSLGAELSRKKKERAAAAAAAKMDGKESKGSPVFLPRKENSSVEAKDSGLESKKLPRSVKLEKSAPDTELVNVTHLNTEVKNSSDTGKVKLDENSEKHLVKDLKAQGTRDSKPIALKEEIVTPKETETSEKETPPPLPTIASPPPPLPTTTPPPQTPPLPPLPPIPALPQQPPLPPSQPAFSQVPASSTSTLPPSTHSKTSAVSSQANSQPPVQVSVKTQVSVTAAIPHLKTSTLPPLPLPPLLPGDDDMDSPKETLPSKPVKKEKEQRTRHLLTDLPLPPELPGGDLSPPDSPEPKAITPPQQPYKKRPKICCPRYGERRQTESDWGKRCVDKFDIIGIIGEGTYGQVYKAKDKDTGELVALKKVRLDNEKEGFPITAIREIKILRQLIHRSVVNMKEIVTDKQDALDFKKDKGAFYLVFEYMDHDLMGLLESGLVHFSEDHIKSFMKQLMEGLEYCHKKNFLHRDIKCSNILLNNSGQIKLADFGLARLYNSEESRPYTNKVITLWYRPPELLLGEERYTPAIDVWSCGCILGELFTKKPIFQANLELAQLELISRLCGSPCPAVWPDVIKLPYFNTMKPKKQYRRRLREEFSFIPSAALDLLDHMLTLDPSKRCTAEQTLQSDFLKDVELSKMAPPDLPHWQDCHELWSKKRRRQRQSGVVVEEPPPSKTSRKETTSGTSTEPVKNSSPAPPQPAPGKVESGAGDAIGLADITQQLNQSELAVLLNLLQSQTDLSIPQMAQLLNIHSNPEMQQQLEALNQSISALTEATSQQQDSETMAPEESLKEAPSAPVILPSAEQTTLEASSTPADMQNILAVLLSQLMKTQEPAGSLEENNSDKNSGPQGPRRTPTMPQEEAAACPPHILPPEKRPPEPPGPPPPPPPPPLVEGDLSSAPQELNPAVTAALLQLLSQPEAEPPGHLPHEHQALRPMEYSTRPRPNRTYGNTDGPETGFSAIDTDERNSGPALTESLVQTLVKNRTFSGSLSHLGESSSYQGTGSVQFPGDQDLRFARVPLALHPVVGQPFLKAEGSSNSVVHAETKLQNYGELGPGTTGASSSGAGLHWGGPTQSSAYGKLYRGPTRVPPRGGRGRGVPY
- Sequence (O75909 whole entry partner, looked up, species assumed): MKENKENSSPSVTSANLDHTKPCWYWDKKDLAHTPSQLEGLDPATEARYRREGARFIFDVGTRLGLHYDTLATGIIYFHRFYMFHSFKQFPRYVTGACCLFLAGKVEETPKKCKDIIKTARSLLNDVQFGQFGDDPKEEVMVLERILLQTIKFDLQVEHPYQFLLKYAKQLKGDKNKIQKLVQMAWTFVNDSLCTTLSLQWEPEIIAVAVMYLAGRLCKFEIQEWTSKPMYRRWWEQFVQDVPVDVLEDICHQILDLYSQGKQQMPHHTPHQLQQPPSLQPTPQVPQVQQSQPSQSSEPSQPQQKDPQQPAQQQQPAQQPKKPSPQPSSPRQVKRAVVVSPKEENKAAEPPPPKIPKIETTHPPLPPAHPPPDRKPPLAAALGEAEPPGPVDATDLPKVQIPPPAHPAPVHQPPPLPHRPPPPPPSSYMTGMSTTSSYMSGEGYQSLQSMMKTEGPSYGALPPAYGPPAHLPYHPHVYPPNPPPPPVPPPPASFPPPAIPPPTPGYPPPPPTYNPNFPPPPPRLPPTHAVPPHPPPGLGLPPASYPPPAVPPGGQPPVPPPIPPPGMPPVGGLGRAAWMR
Quick one: just the number, no unit, thanks!

Some compounds with known Ratio CDK7/CDK12 results, for comparison:
compound=C=CC(=O)N1CCC(c2ccc([C@H](C)C(=O)Nc3cc(C4CC4)[nH]n3)cc2)CC1 measured_quantity="Ratio CDK7/CDK12" obs_value=18.74
compound="C=CC(=O)N1CC=C(c2ccc(C(C)C(=O)Nc3cc(C4CC4)[nH]n3)cc2F)CC1 (stereo not shown) [Compound 44]" measured_quantity="Ratio CDK7/CDK12" obs_value=97.77
compound="C=CC(=O)N1CCC=C(c2ccc(C(C)C(=O)Nc3cc(C4CC4)[nH]n3)cc2)CC1 (stereo not shown)" measured_quantity="Ratio CDK7/CDK12" obs_value=27.43

Next:
Q: Please report the recorded Ratio CDK7/CDK12 for C=CC(=O)N1CCN(c2ccc(C(C)C(=O)Nc3cc(C4CC4)[nH]n3)cc2)CC1 (stereo not shown) .
Ans: 13.49
